- assay-remarks: Chemical stability test in human plasma (enzymatic hydrolysis, HPLC-MS/MS)
- Type: in vitro ADME
- conditions-used: human plasma, all sample sets (pure isomer and mixture), up to 120 min at 37 °C
measured-endpoint: behaviour towards plasma enzymes (hydrolysis or stable)

INSERT INTO results (smiles_record, reported_value) VALUES
  ('COc1cc(/C=C/C(=O)OCCCCCN(C)CCCOC(=O)c2cc(OC)c(OC)c(OC)c2)cc(OC)c1OC', 'remained constant'),
  ('COc1cc(/C=C/C(=O)OCCCCCCN(C)CCCOC(=O)c2cc(OC)c(OC)c(OC)c2)cc(OC)c1OC', 'remained constant'),
  ('COc1cc(/C=C/C(=O)OCCCN(C)CCCCCOC(=O)c2cc(OC)c(OC)c(OC)c2)cc(OC)c1OC', 'hydrolysis'),
  ('COc1cc(/C=C/C(=O)OCCCN(C)CCCCCCOC(=O)c2cc(OC)c(OC)c(OC)c2)cc(OC)c1OC', 'hydrolysis');

---

So I've got a bunch of compounds here, and I need their Pure Isomer k ± 2SD (degradation rate) values.
- assay-remarks: Chemical stability test in human plasma (enzymatic hydrolysis, HPLC-MS/MS)
- Format: in vitro ADME
- conditions-used: human plasma spiked with the pure isomer, 1 μM, 37 °C, 0-120 min; conventional quantitative processing

Qu. Can you share its Pure Isomer k ± 2SD (degradation rate)? I mean this compound: COc1cc(/C=C/C(=O)OCCCN(C)CCCCCCOC(=O)c2cc(OC)c(OC)c(OC)c2)cc(OC)c1OC [ELF94]
Ans. −0.014 ± 0.001 ln(μM)/min

Qu. Can you share its Pure Isomer k ± 2SD (degradation rate)? I mean this compound: COc1cc(/C=C/C(=O)OCCCCCN(C)CCCOC(=O)c2cc(OC)c(OC)c(OC)c2)cc(OC)c1OC [GDE5]
Ans. <0.006 ln(μM)/min

Qu. Can you share its Pure Isomer k ± 2SD (degradation rate)? I mean this compound: COc1cc(/C=C/C(=O)OCCCCCCN(C)CCCOC(=O)c2cc(OC)c(OC)c(OC)c2)cc(OC)c1OC [ELF96]
Ans. <0.006 ln(μM)/min

Qu. Can you share its Pure Isomer k ± 2SD (degradation rate)? I mean this compound: COc1cc(/C=C/C(=O)OCCCN(C)CCCCCOC(=O)c2cc(OC)c(OC)c(OC)c2)cc(OC)c1OC [FRA76]
Ans. −0.017 ± 0.001 ln(μM)/min

Measured values drawn from paper PMC9653966 for this set.
